Ref: patent EP4755885A1

Test: Pharmacokinetic evaluation in mice, oral administration
Type: in vivo, Balb/c mice
Settings: mouse, in vivo, po, p.o. 5 mg/kg, plasma, single PK
REPORTED ENDPOINT: Tmax (h)
Unit h implied. Number only.

Reference set, count: 5
INPUT SMILES	U	NUMERIC RESULT
Cc1cc(-n2nc3c(c2-n2ccn(-c4ccc5c(cnn5C5CC5)c4F)c2=O)[C@H](C)N(C(=O)c2cc4cc([C@H]5CCOC(C)(C)C5)ccc4n2[C@@]2(c4noc(=O)[nH]4)[C@@H]4COC[C@@H]42)CC3)cc(C)c1F	h	2.7
Cc1cc(-n2nc3c(c2-n2ccn(-c4cc5c6c(c4)CCC(=O)N6CCC5)c2=O)[C@H](C)N(C(=O)c2cc4cc([C@H]5CCOC(C)(C)C5)ccc4n2[C@@]2(c4noc(=O)[nH]4)C[C@@H]2C)CC3)cc(C)c1F	h	1
Cc1cc(-n2nc3c(c2-n2ccn(-c4ccc5c6c(nn5C)CCCOc46)c2=O)[C@H](C)N(C(=O)c2cc4cc([C@H]5CCOC(C)(C)C5)ccc4n2[C@@]2(c4noc(=O)[nH]4)C[C@@H]2C)CC3)cc(C)c1F	h	1.2
CC#C[C@H]1C[C@]1(c1noc(=O)[nH]1)n1c(C(=O)N2CCc3nn(-c4cc(C)c(F)c(C)c4)c(-n4ccn(-c5ccc6c(cnn6C6CC6)c5F)c4=O)c3[C@@H]2C)cc2cc([C@H]3CCOC(C)(C)C3)ccc21	h	3
Cc1cc(-n2nc3c(c2-n2ccn(-c4ccc5c(cnn5C5CC5)c4F)c2=O)[C@H](C)N(C(=O)c2cc4cc([C@H]5CCOC(C)(C)C5)ccc4n2[C@@]2(c4noc(=O)[nH]4)C[C@@H]2C)CC3)cc(C)c1C#N	h	1

Exercise: Return reported Tmax; argument: [2H]C([2H])([2H])n1nc2c3c(c(-n4ccn(-c5c6c(nn5-c5cc(C)c(F)c(C)c5)CCN(C(=O)c5cc7cc([C@H]8CCOC(C)(C)C8)ccc7n5[C@@]5(c7noc(=O)[nH]7)C[C@@H]5C#C)[C@H]6C)c4=O)ccc31)OCCC2
Solution: 1

Exercise: Return reported Tmax; argument: [2H]C([2H])([2H])n1nc2c3c(c(-n4ccn(-c5c6c(nn5-c5cc(C)c(F)c(C)c5)CCN(C(=O)c5cc7cc([C@H]8CCOC(C)(C)C8)ccc7n5[C@@]5(c7noc(=O)[nH]7)C[C@@H]5C)[C@H]6C)c4=O)ccc31)OCCC2
Solution: 2

Exercise: Return reported Tmax; argument: Cc1cc(-n2nc3c(c2-n2ccn(-c4ccc5c(cnn5C5CC5)c4F)c2=O)[C@H](C)N(C(=O)c2cc4cc([C@H]5CCOC(C)(C)C5)ccc4n2[C@@]2(c4noc(=O)[nH]4)C[C@@H]2COC2CC2)CC3)cc(C)c1F
Solution: 4
